This listing pairs compounds with measured Z-AUC.
assay: qHTS drug screen for cell cycle checkpoint inhibitors in PARPi-resistant BRCA-mutant ovarian cancer cell lines. (AID 1963452); details: PEO1/OlaR viability, CellTiter-Glo luminescence, 96 h; hits give low values
Where a SMILES comes first, the peptide text is derived from it. [ ]: non-standard residue; d: D form.
EXPERIMENTAL_READOUT: Z-AUC

>  <COMPOUND>
COc1nc(N)nc2c1ncn2C1OC(CO)C(O)C1O (configuration not stated)

>  <RECORDED_VALUE>
-0.613

$$$$
>  <COMPOUND>
O=c1[nH]nc2c3c(cccc13)NC(CN1Cc3ccccc3C1)=N2

>  <RECORDED_VALUE>
-0.263

$$$$
>  <COMPOUND>
C=CC(=O)N1CCC(CNc2ncnc(N)c2-c2ccc(Oc3ccccc3)cc2)CC1

>  <RECORDED_VALUE>
1.54

$$$$
>  <COMPOUND>
CN(C)c1cc(NC(=O)CNC(C)(C)C)c(O)c2c1C[C@H]1C[C@H]3[C@H](N(C)C)C(=O)C(C(N)=O)=C(O)[C@]3(O)C(=O)C1=C2O

>  <RECORDED_VALUE>
1.31

$$$$
>  <COMPOUND>
O=C(NO)c1ccc(C2=Nc3ccccc3Oc3ccccc32)cc1

>  <RECORDED_VALUE>
-0.476

$$$$
>  <COMPOUND>
CN[C@@H](C)C(=O)N[C@H](C(=O)N1CCC[C@H]1C(=O)Nc1sc(-c2ncco2)nc1-c1ccccc1)C1CCCCC1

>  <RECORDED_VALUE>
1.87

$$$$
>  <COMPOUND>
COc1cc(N2CCN(C)CC2)ccc1Nc1ncc2c(n1)N(C)c1ccccc1C(=O)N2C

>  <RECORDED_VALUE>
-0.347

$$$$
>  <COMPOUND>
[2H]C([2H])(Nc1nc(-c2ccccc2C([2H])(C([2H])([2H])[2H])C([2H])([2H])[2H])ncc1C)c1ccc(-n2ccnn2)cc1

>  <RECORDED_VALUE>
-0.917

$$$$
>  <COMPOUND>
Cc1ncsc1-c1ccc([C@H](C)NC(=O)[C@@H]2C[C@@H](O)CN2C(=O)[C@@H](NC(=O)COCCCOCCNC(=O)C[C@@H]2N=C(c3ccc(Cl)cc3)c3c(sc(C)c3C)-n3c(C)nnc32)C(C)(C)C)cc1

>  <RECORDED_VALUE>
-2.25

$$$$
>  <COMPOUND>
Cc1cnc(NC(=O)c2cc(Oc3cnc(C(=O)N(C)C)nc3)c3cc(C)oc3c2)cn1

>  <RECORDED_VALUE>
-1.14

$$$$
>  <COMPOUND>
CC(C)C[C@@H]1NC(=O)[C@@H](C(C)C)NC(=O)[C@@H]2CCCN2C(=O)[C@@H](CC(=O)O)NC(=O)[C@@H](Cc2c[nH]c3ccccc23)NC1=O (cyclo(L[dW][dD]P[dV]))

>  <RECORDED_VALUE>
-0.319

$$$$
>  <COMPOUND>
C[C@H]1CNCCCN1S(=O)(=O)c1cccc2cncc(F)c12

>  <RECORDED_VALUE>
-0.978

$$$$
>  <COMPOUND>
CC(C)NCCCn1c(Sc2cc(Cl)cc(Cl)c2)nc2c(N)ncnc21

>  <RECORDED_VALUE>
-1.23

$$$$
>  <COMPOUND>
Cn1c(-c2ccccc2C(F)(F)F)nnc1C12CCC(c3noc(C4CC(F)(F)C4)n3)(CC1)CC2

>  <RECORDED_VALUE>
1.42

$$$$
>  <COMPOUND>
COc1ccc([C@@H](O)[C@@H](C)Oc2ccc([C@H]3O[C@H](c4ccc(O[C@H](C)[C@H](O)c5ccc(OC)c(OC)c5)c(OC)c4)[C@H](C)[C@H]3C)cc2OC)cc1OC

>  <RECORDED_VALUE>
-1.98

$$$$
>  <COMPOUND>
Nc1cccc2c1CN([C@H]1CCC(=O)NC1=O)C2=O

>  <RECORDED_VALUE>
0.0993

$$$$
>  <COMPOUND>
CN(C)C/C=C/C(=O)Nc1ccc(C(=O)N2CCC[C@@H](Nc3ncc(Cl)c(-c4c[nH]c5ccccc45)n3)C2)cc1

>  <RECORDED_VALUE>
-1.88

$$$$
>  <COMPOUND>
O=C(Nc1ccccc1)Nc1ccc(-c2ccc(C(=O)[C@@H]3CCC[C@H]3C(=O)O)cc2)cc1

>  <RECORDED_VALUE>
1.01

$$$$
>  <COMPOUND>
CN[C@@H](C)C(=O)N[C@H](C(=O)N1CCC[C@H]1C(=O)Nc1snnc1-c1ccccc1)C1CCCCC1

>  <RECORDED_VALUE>
1.43

$$$$
>  <COMPOUND>
COCCOC(=O)N1CCN(S(=O)(=O)c2cc(F)c(Oc3ccc(Cl)cc3)c(F)c2)C(C(=O)NO)C1 (configuration not stated)

>  <RECORDED_VALUE>
-1.01

$$$$
>  <COMPOUND>
NS(=O)(=O)c1ccc(NC(=S)N2CCN(C/C=C/c3ccccc3)CC2)cc1

>  <RECORDED_VALUE>
0.177

$$$$
>  <COMPOUND>
CN1C(=O)[C@@H](NC(=O)c2cc(Cc3ccccc3)on2)COc2ccccc21

>  <RECORDED_VALUE>
0.979

$$$$
